- assay target: Rap guanine nucleotide exchange factor 3 (Homo sapiens) (UniProt O95398)
- Sequence (O95398 whole entry, looked up): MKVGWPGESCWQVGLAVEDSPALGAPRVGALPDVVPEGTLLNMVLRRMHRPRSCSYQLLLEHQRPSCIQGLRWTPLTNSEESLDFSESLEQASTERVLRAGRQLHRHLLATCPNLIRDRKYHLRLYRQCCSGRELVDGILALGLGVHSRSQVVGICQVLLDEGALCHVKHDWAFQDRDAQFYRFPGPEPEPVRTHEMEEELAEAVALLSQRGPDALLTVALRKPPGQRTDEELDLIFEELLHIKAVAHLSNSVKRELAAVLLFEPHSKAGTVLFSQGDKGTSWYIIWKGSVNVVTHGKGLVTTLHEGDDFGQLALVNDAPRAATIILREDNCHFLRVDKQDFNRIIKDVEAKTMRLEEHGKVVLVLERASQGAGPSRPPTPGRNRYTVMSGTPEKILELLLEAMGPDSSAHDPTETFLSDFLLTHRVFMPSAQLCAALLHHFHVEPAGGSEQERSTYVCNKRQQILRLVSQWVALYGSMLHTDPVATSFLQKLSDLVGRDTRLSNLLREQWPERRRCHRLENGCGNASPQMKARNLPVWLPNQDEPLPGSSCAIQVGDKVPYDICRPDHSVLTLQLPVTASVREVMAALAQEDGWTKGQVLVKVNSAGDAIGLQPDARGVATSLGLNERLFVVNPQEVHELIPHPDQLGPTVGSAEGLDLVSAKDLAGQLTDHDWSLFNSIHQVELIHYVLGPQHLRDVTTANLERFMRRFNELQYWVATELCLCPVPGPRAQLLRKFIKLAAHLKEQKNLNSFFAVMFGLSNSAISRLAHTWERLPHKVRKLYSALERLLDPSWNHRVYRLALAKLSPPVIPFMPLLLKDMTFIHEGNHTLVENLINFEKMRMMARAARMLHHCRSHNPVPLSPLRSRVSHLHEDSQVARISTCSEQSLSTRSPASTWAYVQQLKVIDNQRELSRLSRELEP
- assay: Counterscreen qHTS for antagonist of cAMP-regulated guanine nucleotide exchange factor 3 (EPAC1) (AID 1645888);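 note: fluorescence loss as bound BODIPY-GDP is released from Rap1B; % of control where 0% means no effect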
- cond: Rap1B-BODIPY-GDP nucleotide exchange, fluorescence; series mostly up to 154 µM
Records with an inconclusive call do not appear. Calls of active or inactive are those of the source. Calls come from the whole dose curve; as a rule, active = well fitted inhibition curve with a large enough effect; inconclusive = small, poorly fitted or top-dose-only effect; inactive = no such curve, though single readings can be large or run the other way.
measurement type: activity change, negative = inhibition

[[record]]
compound = "COc1ccc(S(=O)(=O)N2CCC[C@H]2C(=O)N2CCC[C@H]2C(=O)NCc2ccccc2)cc1C"
assay_target = "Rap guanine nucleotide exchange factor 3 (Homo sapiens) (UniProt O95398)"
endpoint_value = "-5.32% [at 30.8 µM] (inactive)"

[[record]]
compound = "O=C(CCNC(=O)c1ccccc1Cl)NCC(c1ccc(F)cc1)N1CCOCC1 (stereo not given)"
assay_target = "Rap guanine nucleotide exchange factor 3 (Homo sapiens) (UniProt O95398)"
endpoint_value = "inactive"

[[record]]
compound = "Cc1ccccc1S(=O)(=O)N1C(c2ccc(Cl)c(Cl)c2)CC=C(C(=O)O)C1c1cccc(Br)c1 (stereo not given)"
assay_target = "Rap guanine nucleotide exchange factor 3 (Homo sapiens) (UniProt O95398)"
endpoint_value = "inactive"

[[record]]
compound = "Cc1ccc(Cl)cc1NC(=O)C(C)n1nc(-c2ccccc2)ccc1=O (stereo not given)"
assay_target = "Rap guanine nucleotide exchange factor 3 (Homo sapiens) (UniProt O95398)"
endpoint_value = "inactive"

[[record]]
compound = "CN1CCC/C1=C/C=C1\\SC(=S)NC1=O"
assay_target = "Rap guanine nucleotide exchange factor 3 (Homo sapiens) (UniProt O95398)"
endpoint_value = "inactive"


Turning now to a further compound:
Problem: Record request: activity change, negative = inhibition value, item "COc1cccc(Cn2c(=O)cc(C)c3c(C)nn(C)c32)c1"
Result: inactive
